- Test system: P. vulgaris No. 33
- test-summary: MIC by agar plate dilution method
- Assay type: cell-based
- study-conditions: Proteus vulgaris; P. vulgaris No. 33; 10^6 CFU/ml; read-out: Minimum Inhibitory Concentration
Measured MIC by item

{"compound": "CC(C)ON=C(C(=O)NC1C(=O)N2C(C(=O)[O-])=C(C[N+]3(C)CCc4cc(O)c(O)cc4C3)CSC12)c1csc(N)n1 (stereo not drawn)", "assay-system": "P. vulgaris No. 33", "MIC [µg/mL]": 0.1}
{"compound": "CCO/N=C(\\C(=O)NC1C(=O)N2C(C(=O)[O-])=C(C[N+]3(C)CCc4ccccc4C3)CSC12)c1csc(N)n1 (stereo not drawn)", "assay-system": "P. vulgaris No. 33", "MIC [µg/mL]": 0.39}
{"compound": "CON=C(C(=O)NC1C(=O)N2C(C(=O)[O-])=C(C[N+]3(C)CCc4c(ccc(O)c4O)C3)CSC12)c1csc(N)n1 (stereo not drawn)", "assay-system": "P. vulgaris No. 33", "MIC [µg/mL]": 0.2}
{"compound": "CON=C(C(=O)NC1C(=O)N2C(C(=O)[O-])=C(C[N+]3(C)CCc4cc(O)c(O)c(O)c4C3)CSC12)c1csc(N)n1 (stereo not drawn)", "assay-system": "P. vulgaris No. 33", "MIC [µg/mL]": 1.56}
{"compound": "C[N+]1(CC2=C(C(=O)[O-])N3C(=O)C(NC(=O)C(=NOC4CCCC4)c4csc(N)n4)C3SC2)CCc2cc(O)c(O)cc2C1 (stereo not drawn)", "assay-system": "P. vulgaris No. 33", "MIC [µg/mL]": 0.1}
{"compound": "CO/N=C(\\C(=O)NC1C(=O)N2C(C(=O)[O-])=C(C[N+]3(C)CCc4cc(OC)c(OC)cc4C3)CSC12)c1csc(N)n1 (stereo not drawn)", "assay-system": "P. vulgaris No. 33", "MIC [µg/mL]": 1.56}

----------
Measured MIC by item
- Tested on: E. cloaceae Nek 39
- test-summary: MIC by agar plate dilution method
- Assay type: cell-based
- study-conditions: E. cloaceae Nek 39; 10^6 CFU/ml; read-out: Minimum Inhibitory Concentration

{"compound": "C[N+]1(CC2=C(C(=O)[O-])N3C(=O)C(NC(=O)C(=NOC4CCCC4)c4csc(N)n4)C3SC2)CCc2cc(O)c(O)cc2C1 (stereo not shown)", "result-modifier": "=", "MIC (µg/mL)": 0.0125}
{"compound": "CO/N=C(\\C(=O)NC1C(=O)N2C(C(=O)[O-])=C(C[N+]3(C)CCc4cc(OC)c(OC)cc4C3)CSC12)c1csc(N)n1 (stereo not shown)", "result-modifier": "=", "MIC (µg/mL)": 12.5}
{"compound": "C[N+]1(CC2=C(C(=O)[O-])N3C(=O)C(NC(=O)C(=NOC4(C(=O)O)CC4)c4csc(N)n4)C3SC2)CCc2cc(O)c(O)cc2C1 (stereo not shown)", "result-modifier": "≤", "MIC (µg/mL)": 0.05}
{"compound": "CON=C(C(=O)NC1C(=O)N2C(C(=O)[O-])=C(C[N+]3(C)CCc4cc(O)c(O)cc4C3)CSC12)c1csc(N)n1 (stereo not shown)", "result-modifier": "=", "MIC (µg/mL)": 0.1}
{"compound": "CCO/N=C(\\C(=O)NC1C(=O)N2C(C(=O)[O-])=C(C[N+]3(C)CCc4ccccc4C3)CSC12)c1csc(N)n1 (stereo not shown)", "result-modifier": "=", "MIC (µg/mL)": 3.12}
{"compound": "CO/N=C(\\C(=O)NC1C(=O)N2C(C(=O)[O-])=C(C[N+]3(C)CCc4cc(O)ccc4C3)CSC12)c1csc(N)n1 (stereo not shown)", "result-modifier": "=", "MIC (µg/mL)": 0.78}
{"compound": "C[N+]1(CC2=C(C(=O)[O-])N3C(=O)C(NC(=O)C(=NOC4(C(=O)O)CCC4)c4csc(N)n4)C3SC2)CCc2cc(O)c(O)cc2C1 (stereo not shown)", "result-modifier": "=", "MIC (µg/mL)": 0.1}
{"compound": "C[N+]1(CC2=C(C(=O)[O-])N3C(=O)C(NC(=O)C(=NOC4(C(=O)O)CCCC4)c4csc(N)n4)C3SC2)CCc2cc(O)c(O)cc2C1 (stereo not shown)", "result-modifier": "=", "MIC (µg/mL)": 0.1}
{"compound": "CO/N=C(\\C(=O)NC1C(=O)N2C(C(=O)[O-])=C(C[N+]3(C)CCc4ccccc4C3)CSC12)c1csc(N)n1 (stereo not shown)", "result-modifier": "=", "MIC (µg/mL)": 1.56}
{"compound": "CO/N=C(\\C(=O)N[C@@H]1C(=O)N2C(C(=O)O)=C(COC(C)=O)CS[C@H]12)c1csc(N)n1 [Cefotaxime, reference compound]", "result-modifier": "=", "MIC (µg/mL)": 0.78}
{"compound": "CON=C(C(=O)NC1C(=O)N2C(C(=O)[O-])=C(C[N+]3(C)CCc4cc(O)c(O)c(O)c4C3)CSC12)c1csc(N)n1 (stereo not shown)", "result-modifier": "=", "MIC (µg/mL)": 1.56}
{"compound": "CC(C)(O/N=C(\\C(=O)NC1C(=O)N2C(C(=O)[O-])=C(C[N+]3(C)CCc4ccccc4C3)CSC12)c1csc(N)n1)C(=O)O (single isomer, unassigned) [Isomer A of Ex. 8-E]", "result-modifier": "=", "MIC (µg/mL)": 1.56}
{"compound": "CO/N=C(\\C(=O)NC1C(=O)N2C(C(=O)[O-])=C(C[N+]3(C)CCc4cc(OC(C)=O)c(OC(C)=O)cc4C3)CSC12)c1csc(N)n1 (stereo not shown)", "result-modifier": "≤", "MIC (µg/mL)": 0.05}

Source listed as patent US4742053A.
